Where these numbers come from: patent US7498358B2

- Tested on: various metalloproteases
- experiment notes: in vitro inhibition of various metalloproteases (Table 4)
- Type: biochemical
- cond: MMP8; Table 4, in vitro; read-out: MMP8 IC50
- Procedure: Inhibition is indicated as IC50 with the following key: A=IC50 less than 50 nM, B=IC50 greater than 50 nM, but less than 1000 nM, C=IC50 greater than […], but less than 20,000 nM, and D=IC50 greater than 20,000 nM.
readout name: IC50

IC50 for N=C(N)NCCC[C@@H](NS(=O)(=O)c1ccc(Oc2ccccc2)cc1)C(=O)NO [Compound 2] ?
< 50 nM

----------
- System: various metalloproteases
- experiment notes: in vitro inhibition of various metalloproteases (Table 4)
- Format: biochemical
- cond: MMP13; Table 4, in vitro; read-out: MMP13 IC50
Recorded IC50 by entry

# compound, IC50
rows = [
    ("N#Cc1ccc(C[C@@H](NS(=O)(=O)c2cc(F)c(Oc3ccc(F)cc3)c(F)c2)C(=O)NO)cc1 [Compound 72]", "< 50 nM"),
    ("Cc1cc(C)cc(Oc2c(F)cc(S(=O)(=O)NC(C(=O)NO)C3CCNCC3)cc2F)c1 (stereo not drawn) [Compound 99]", "< 50 nM"),
    ("CN(C)CC[C@@H](NS(=O)(=O)c1cc(F)c(Oc2ccc(Cl)cc2)c(F)c1)C(=O)NO [Compound 89]", "50 to 1000 nM"),
    ("N=C(N)NCCC[C@@H](NS(=O)(=O)c1ccc(Oc2ccc(F)cc2)nc1)C(=O)NO [Compound 68]", "< 50 nM"),
    ("N=C(N)NCCC[C@@H](NS(=O)(=O)c1ccc(Oc2ccccc2)cc1)C(=O)NO [Compound 2]", "< 50 nM"),
]

Proceed to the following item.
IC50 for O=C(NO)C(NS(=O)(=O)c1ccc(Oc2ccc(F)cc2)cc1)C1CCNCC1 (stereo not drawn) [Compound 97] ?
< 50 nM

----------
- System: various metalloproteases
- experiment notes: in vitro inhibition of various metalloproteases (Table 4)
- Format: biochemical
- cond: MMP9; Table 4, in vitro; read-out: MMP9 IC50
- Procedure: Inhibition is indicated as IC50 with the following key: A=IC50 less than 50 nM, B=IC50 greater than 50 nM, but less than 1000 nM, C=IC50 greater than […], but less than 20,000 nM, and D=IC50 greater than 20,000 nM.
readout name: IC50

IC50 for N=C(N)NCCC[C@@H](NS(=O)(=O)c1ccc(Oc2ccccc2)cc1)C(=O)NO ?
< 50 nM

----------
- system: various metalloproteases (Homo sapiens, UniProt P08254)
- Sequence (P08254 100-477): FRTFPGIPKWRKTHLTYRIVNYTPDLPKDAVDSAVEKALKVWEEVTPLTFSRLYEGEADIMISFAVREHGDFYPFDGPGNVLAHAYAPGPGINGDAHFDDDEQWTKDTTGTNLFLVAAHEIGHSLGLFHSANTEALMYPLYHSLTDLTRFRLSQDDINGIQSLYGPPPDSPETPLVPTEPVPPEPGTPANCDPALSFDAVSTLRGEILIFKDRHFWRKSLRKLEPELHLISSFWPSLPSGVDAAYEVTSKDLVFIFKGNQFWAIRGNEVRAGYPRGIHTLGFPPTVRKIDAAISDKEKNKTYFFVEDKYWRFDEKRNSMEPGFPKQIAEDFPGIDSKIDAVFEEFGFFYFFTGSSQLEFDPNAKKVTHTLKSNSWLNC
readout name: IC50

IC50 for NCC1CCC(C[C@H](NS(=O)(=O)c2ccc(-c3cccc(F)c3)nc2)C(=O)NO)CC1 (stereo partly shown) [Compound 105] ?
50 to 1000 nM

----------
For hADAM-10 (UniProt O14672), measured IC50 is reported for the entries below.

# compound, value measured
data = [
    ("Cc1cc(C)cc(Oc2c(F)cc(S(=O)(=O)N[C@@H](CC3CCC(CN)CC3)C(=O)NO)cc2F)c1 (some centres unmarked) [Compound 106]", "50 to 20000 nM"),
]

Proceed to the following item.
IC50 for NCCCC[C@@H](NS(=O)(=O)c1ccc(Oc2ccccc2)cc1)C(=O)NO [Compound 13] ?
< 50 nM
